- Measurement Notes: chemical genetic growth profiling, strain panel (AID 1159580);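 also: tested at 20 µM; growth read once vehicle control cultures reached saturation at 30 °C; 1 = growth at the plate median or of vehicle wells; lower values mean less growth of the strain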
- Condition Summary: S. cerevisiae deletion strains, growth OD, locus YNL183C, strain NPR1, active compounds read low
Among all 5,500 compounds or so, about 2,000 (36%) were called active. Another 18% or so got no clear call; they are omitted. The list shows a part of the results.
Entries whose normalized growth is below 0.9 take yes (1); entries at or above 0.9 take no (0).

Request: Regarding CCCCCC(O)C1C(=O)OC(C)C(O)/C=C/C=C/C=C/C=C/C=C(\C)C(O)CC(O)CC(O)CC(O)CC(O)CC(O)CC1O (stereo unspecified) , kindly confirm whether its normalized growth is beneath 0.9.
Response: no (0)

Request: Regarding `FC(F)(F)Oc1ccc(OCc2n[nH]c(=S)n2-c2ccc(Cl)cc2)cc1` , kindly confirm whether its normalized growth is beneath 0.9.
Response: no (0)

Request: Regarding `O=C[C@H](O)[C@@H](O)[C@H](O)CO` , kindly confirm whether its normalized growth is beneath 0.9.
Response: no (0)

Request: Regarding `O=C(Nc1ccccc1C(=O)O)OCC1c2ccccc2-c2ccccc21` , kindly confirm whether its normalized growth is beneath 0.9.
Response: yes (1)

Request: Regarding `C=CCSSCC=C` , kindly confirm whether its normalized growth is beneath 0.9.
Response: yes (1)

Request: Regarding `CN(C)C(=O)C(CCN1CCC(O)(c2ccc(Cl)cc2)CC1)(c1ccccc1)c1ccccc1` , kindly confirm whether its normalized growth is beneath 0.9.
Response: no (0)

Request: Regarding `C=CCSCC=C` , kindly confirm whether its normalized growth is beneath 0.9.
Response: no (0)

Request: Regarding Clc1cccc(Cl)c1C1CC(c2ccccc2)=Nc2ccccc2S1 (stereo unspecified) , kindly confirm whether its normalized growth is beneath 0.9.
Response: no (0)

* * *

- Measurement Notes: chemical genetic growth profiling, strain panel (AID 1159580);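 also: tested at 20 µM; growth read once vehicle control cultures reached saturation at 30 °C; 1 = growth at the plate median or of vehicle wells; lower values mean less growth of the strain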
- Condition Summary: S. cerevisiae deletion strains, growth OD, locus YER015W, strain faa2, active compounds read low
In all, about 5,500 compounds went through this assay and about 2,000 (36%) were called active. Another 18% or so got no clear call; they are omitted. The list shows a part of the results.
Hi there, I'd appreciate the recorded normalized growth for every entry that follows.
The reply should be a number, written without any unit.

Request: Given the molecule CC1=CC(=O)C2C(C)(C)CCC[C@]2(C)[C@@]1(O)CCc1ccoc1 (some centres not stated) , what is its reported normalized growth?
Response: 0.99

Request: Given the molecule `N#Cc1c(Cl)cccc1Cl` , what is its reported normalized growth?
Response: 0.98

Request: Given the molecule `O=C(CCCN1CCC2(CC1)C(=O)NCN2c1ccccc1)c1ccc(F)cc1` , what is its reported normalized growth?
Response: 1

Request: Given the molecule `COC1=CC(=O)C=C(OC)C1=O` , what is its reported normalized growth?
Response: 0.997

Request: Given the molecule C[C@@H]1CCC2[C@](C)(CO)[C@@H](O)CC[C@]2(C)[C@@]12CC[C@@](CO)(CCO)O2 (some centres not stated) , what is its reported normalized growth?
Response: 0.99

Request: Given the molecule NC[C@H]1O[C@H](OC2[C@@H](N)C[C@@H](N)[C@H](O[C@H]3O[C@H](CO)[C@@H](O)[C@H](N)[C@H]3O)[C@H]2O)[C@H](O)[C@@H](O)[C@@H]1O (some centres not stated) , what is its reported normalized growth?
Response: 0.978

Request: Given the molecule CC1=C2C(O)C(=O)OC3CC4C(C)(C)C(=O)C=C[C@]4(C)C(CC1)[C@]23C (some centres not stated) , what is its reported normalized growth?
Response: 1.01

Request: Given the molecule CC12CCC(=O)C=C1CCc1ccccc12 (configuration not stated) , what is its reported normalized growth?
Response: 0.986

Request: Given the molecule `O=C(O)CCc1nc(-c2ccccc2)c(-c2ccccc2)o1` , what is its reported normalized growth?
Response: 0.974

Request: Given the molecule `Cc1ncc(CO)c(CO)c1O` , what is its reported normalized growth?
Response: 1.03

Request: Given the molecule `C[N+]1(C)C[C@H](O)[C@H](C(=O)[O-])C1` , what is its reported normalized growth?
Response: 1.01

Request: Given the molecule `CN(C)C(=O)C(CCN1CCC(O)(c2ccc(Cl)cc2)CC1)(c1ccccc1)c1ccccc1` , what is its reported normalized growth?
Response: 0.967
